# assay_system: HLA-E*01:01 (Homo sapiens, UniProt P13747, G128R)
# assay_comment: HLA-E/peptide cell-surface stabilization (binding) assay, RMA-S cells transfected with HLA-E*01:01
# Type: cell-based
# Design: RMA-S cells expressing HLA-E*01:01 and E*01:03 were generated by transfecting the genes into the RMA-S cell line; expressed in transfected cells; host or cells: murine TAP-deficient RMA-S cells
# condition_set: RMA-S cells with HLA-E*01:01 and human β2-microglobulin; overnight 26 °C, peptide 1 h 26 °C, 3 h 37 °C; peptide 100 μg/ml; Index = (Sample 37 °C – No peptide 37 °C)/(Sample 26 °C – No peptide 26 °C); flow cytometry
measured_attribute: Cell-Surface Stabilization Index E*01:01
Note: the reply should be a number with no unit written.

Recorded results for 9 sequences are shown here.
entry_sequence="PQDLNMMLNIVGGHQ [C026, tHIVconsvX 15-mer peptide […]]" data_value=0.25
entry_sequence="VYYRDSRDPLWKGPA [C377, tHIVconsvX 15-mer peptide […]]" data_value=0.17
entry_sequence="YFSVPLDESFRKYTA [C226, tHIVconsvX 15-mer peptide […]]" data_value=−0.15
entry_sequence="PQDLNTMLNTVGGHQ [C025, tHIVconsvX 15-mer peptide […]]" data_value=0.32
entry_sequence="QMAVLIHNFKRRGGI [C353, tHIVconsvX 15-mer peptide […]]" data_value=0.17
entry_sequence="YFSVPLDKDFRKYTA [C227, tHIVconsvX 15-mer peptide […]]" data_value=0.21
entry_sequence="INEEAAEWDRLHPVH [C038, tHIVconsvX 15-mer peptide […]]" data_value=0.20
entry_sequence="SALSEGATPQDLNMM [C022, tHIVconsvX 15-mer peptide […]]" data_value=0.14
entry_sequence=GHQAAMQMLKDTINE data_value=0.27

We now examine a further sequence.
## Input Provide measured Cell-Surface Stabilization Index E*01:01 value, entry: GHQAAMQMLKETINE [C032, tHIVconsvX 15-mer peptide […]]
## Output 0.16

* * *

# assay_system: HLA-E*01:03 (Homo sapiens, UniProt P13747)
# assay_comment: HLA-E/peptide cell-surface stabilization (binding) assay, RMA-S cells transfected with HLA-E*01:03
# Type: cell-based
# Design: RMA-S cells expressing HLA-E*01:01 and E*01:03 were generated by transfecting the genes into the RMA-S cell line; expressed in transfected cells; host or cells: murine TAP-deficient RMA-S cells
# condition_set: RMA-S cells with HLA-E*01:03 and human β2-microglobulin; overnight 26 °C, peptide 1 h 26 °C, 3 h 37 °C; peptide 100 μg/ml; Index = (Sample 37 °C – No peptide 37 °C)/(Sample 26 °C – No peptide 26 °C); mean ± SD n=3; SD
measured_attribute: Cell-Surface Stabilization Index E*01:03 ± SD
Note: the reply should be a number with no unit written.

Recorded results for 3 sequences are shown here.
entry_sequence="TEEKIKALTEICKEM [C182, tHIVconsvX 15-mer peptide […]]" data_value=0.463
entry_sequence="GHQAAMQMLKETINE [C032, tHIVconsvX 15-mer peptide […]]" data_value=0.480
entry_sequence="PQDLNMMLNIVGGHQ [C026, tHIVconsvX 15-mer peptide […]]" data_value=0.429

## Input Provide measured Cell-Surface Stabilization Index E*01:03 ± SD value, entry: VYYRDSRDPLWKGPA [C377, tHIVconsvX 15-mer peptide […]]
## Output 0.353

## Input Provide measured Cell-Surface Stabilization Index E*01:03 ± SD value, entry: INEEAAEWDRLHPVH [C038, tHIVconsvX 15-mer peptide […]]
## Output 0.389

## Input Provide measured Cell-Surface Stabilization Index E*01:03 ± SD value, entry: VYYRDSRDPIWKGPA [C376, tHIVconsvX 15-mer peptide […]]
## Output 0.366

## Input Provide measured Cell-Surface Stabilization Index E*01:03 ± SD value, entry: QMAVFIHNFKRKGGI [C352, tHIVconsvX 15-mer peptide […]]
## Output 0.641

## Input Provide measured Cell-Surface Stabilization Index E*01:03 ± SD value, entry: YFSVPLDKDFRKYTA [C227, tHIVconsvX 15-mer peptide […]]
## Output 0.618

## Input Provide measured Cell-Surface Stabilization Index E*01:03 ± SD value, entry: QMAVLIHNFKRRGGI [C353, tHIVconsvX 15-mer peptide […]]
## Output 0.632

## Input Provide measured Cell-Surface Stabilization Index E*01:03 ± SD value, entry: PQDLNTMLNTVGGHQ [C025, tHIVconsvX 15-mer peptide […]]
## Output 0.431

## Input Provide measured Cell-Surface Stabilization Index E*01:03 ± SD value, entry: `IVRMYSPTSILDIKQ`
## Output 0.518

## Input Provide measured Cell-Surface Stabilization Index E*01:03 ± SD value, entry: YFSVPLDESFRKYTA [C226, tHIVconsvX 15-mer peptide […]]
## Output 0.669

## Input Provide measured Cell-Surface Stabilization Index E*01:03 ± SD value, entry: SALSEGATPQDLNMM [C022, tHIVconsvX 15-mer peptide […]]
## Output 0.382

## Input Provide measured Cell-Surface Stabilization Index E*01:03 ± SD value, entry: INEEAAEWDRVHPVH [C037, tHIVconsvX 15-mer peptide […]]
## Output 0.419

## Input Provide measured Cell-Surface Stabilization Index E*01:03 ± SD value, entry: `GHQAAMQMLKDTINE`
## Output 0.455

The origin of these recorded values is paper PMC6291738.
